Measured IC50 accompanies every entry in the list below.
Target: hP2X4 (human purinergic P2X receptor subtype 4) (Homo sapiens, UniProt Q99571)
Sequence (Q99571 1-404 isoform Q99571-2): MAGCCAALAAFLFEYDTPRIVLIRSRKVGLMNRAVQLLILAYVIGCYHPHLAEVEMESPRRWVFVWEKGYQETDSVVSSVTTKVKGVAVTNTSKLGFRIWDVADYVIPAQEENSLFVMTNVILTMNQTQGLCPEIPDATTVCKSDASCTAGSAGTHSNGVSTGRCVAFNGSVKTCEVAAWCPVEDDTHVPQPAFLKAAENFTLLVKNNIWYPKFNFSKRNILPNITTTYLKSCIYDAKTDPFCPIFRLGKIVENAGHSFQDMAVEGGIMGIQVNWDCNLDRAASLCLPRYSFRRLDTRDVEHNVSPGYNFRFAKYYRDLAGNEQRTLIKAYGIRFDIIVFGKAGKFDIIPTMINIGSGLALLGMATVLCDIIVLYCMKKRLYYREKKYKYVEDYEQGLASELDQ
Conditions: P2X4 IC50 (nM), HEK293 cells stably expressing hP2X4; agonist BZ-ATP 2.5 μM; FLIPR calcium

Below, 3 compounds whose answers are already recorded.
# compound, result
data = [
    ("NS(=O)(=O)c1cc(NC(=O)Cc2ccccc2Cl)cc2c(OC3CNC3)nccc12 [Compound 12]", "10 to 50 nM"),
    ("CC(C)N1CCc2c(cc(NC(=O)Cc3ccccc3Cl)cc2S(N)(=O)=O)C1 [Compound 113]", "50 to 200 nM"),
    ("COc1ccc(Nc2ccc3c(S(N)(=O)=O)cc(NC(=O)Cc4ccccc4Cl)cc3n2)cc1 [Trifluoroacetate of compound 71]", "200 to 5000 nM"),
]

// compound NS(=O)(=O)c1cc(NC(=O)Cc2ccccc2Cl)cc2nc(N3CCCC3)ccc12 [Compound 89] , assay hP2X4 (human purinergic P2X receptor subtype 4) (Homo sapiens, UniProt Q99571), IC50 value: 200 to 5000 nM

----------
Molecular target: hP2X4 (human purinergic P2X receptor subtype 4) (Homo sapiens)
Details: P2X4 IC50 (nM), HEK293 cells stably expressing hP2X4; agonist BZ-ATP 2.5 μM; FLIPR calcium
reported-endpoint: IC50

# count of solved cases: 10
# compound, IC50
measured = [
    ("NS(=O)(=O)c1cc(NC(=O)Cc2ccccc2Cl)cc2c(Oc3ccccc3)nccc12", "10 to 50 nM"),
    ("NS(=O)(=O)c1cc(NC(=O)Cc2ccccc2Cl)cc2c1CCN(C(Cl)Cl)C2", "200 to 5000 nM"),
    ("NS(=O)(=O)c1cc(NC(=O)Cc2ccccc2Cl)cc2c1CCN(c1ccccc1)C2", "50 to 200 nM"),
    ("N#Cc1nccc2c(S(N)(=O)=O)cc(NC(=O)Cc3ccccc3Cl)cc12 [Compound 90]", "50 to 200 nM"),
    ("NS(=O)(=O)c1cc(NC(=O)Cc2ccccc2Cl)cc2c(F)cncc12", "50 to 200 nM"),
    ("NS(=O)(=O)c1cc(NC(=O)Cc2ccccc2Cl)cc2cncc(F)c12", "50 to 200 nM"),
    ("COc1cc2c(S(N)(=O)=O)cc(NC(=O)Cc3ccccc3Cl)cc2cn1", "50 to 200 nM"),
    ("COc1nccc2c(S(C)(=N)=O)cc(NC(=O)Cc3ccccc3Cl)cc12 (stereo not shown)", "200 to 5000 nM"),
    ("NS(=O)(=O)c1cc(NC(=O)Cc2ccccc2Cl)cc2ccncc12", "50 to 200 nM"),
    ("NS(=O)(=O)c1cc(NC(=O)Cc2ccccc2Cl)cc2c1CCN(c1ccc(Cl)cn1)C2", "50 to 200 nM"),
]

Quick note, IC50 for COc1nccc2c(S(N)(=O)=O)cc(NC(=O)Cc3c(Cl)cccc3Cl)cc12 landed at 200 to 5000 nM

COc1nccc2c(S(N)(=O)=O)cc(NC(=O)Cc3c(F)cccc3Cl)cc12 yielded IC50 of < 10 nM

Value of IC50 reported for the compound CN1CCN(c2ccc3c(S(N)(=O)=O)cc(NC(=O)Cc4ccccc4Cl)cc3n2)CC1=O is 50 to 200 nM

GET /value?item= NS(=O)(=O)c1cc(NC(=O)Cc2ccccc2Cl)cc2cc(Cl)ncc12 &field=IC50 returns 50 to 200 nM

For this compound ( CC(=O)N1CCc2c(cc(NC(=O)Cc3ccccc3Cl)cc2S(N)(=O)=O)C1 ), measured IC50 is 10 to 50 nM

// field: IC50; key: NS(=O)(=O)c1cc(NC(=O)Cc2ccccc2Cl)cc2c1CCN(Cc1ccccc1)C2 ; value = 200 to 5000 nM

Entry Cc1nccc2c(S(N)(=O)=O)cc(NC(=O)Cc3ccccc3Cl)cc12 — recorded IC50 = 50 to 200 nM

Given item NS(=O)(=O)c1cc(NC(=O)Cc2ccccc2Cl)cc2c(Nc3ccc(F)cc3)nccc12 , the value recorded as its IC50 is 200 to 5000 nM

----------
Target: UniProt Q99571
Sequence (Q99571 1-404 isoform Q99571-2): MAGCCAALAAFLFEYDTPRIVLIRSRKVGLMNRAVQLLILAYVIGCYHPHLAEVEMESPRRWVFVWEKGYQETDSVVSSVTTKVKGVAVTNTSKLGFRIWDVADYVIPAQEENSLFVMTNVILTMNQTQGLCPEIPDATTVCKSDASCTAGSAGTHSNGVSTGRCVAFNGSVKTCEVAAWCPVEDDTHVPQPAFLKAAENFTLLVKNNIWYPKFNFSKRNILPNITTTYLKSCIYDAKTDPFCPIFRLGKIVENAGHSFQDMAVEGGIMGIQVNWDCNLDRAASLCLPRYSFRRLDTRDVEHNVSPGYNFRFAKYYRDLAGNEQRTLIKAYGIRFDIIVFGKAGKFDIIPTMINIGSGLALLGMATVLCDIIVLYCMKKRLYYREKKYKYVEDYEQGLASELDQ
Details: P2X4 IC50 (nM), HEK293 cells stably expressing hP2X4; agonist BZ-ATP 2.5 μM; FLIPR calcium
reported-endpoint: IC50

# molecule, IC50
data = [
    ("COc1ccc(F)cc1CC(=O)Nc1cc(S(N)(=O)=O)c2ccnc(OC)c2c1 [Compound 95]", "200 to 5000 nM"),
    ("CC(C)COc1nccc2c(S(N)(=O)=O)cc(NC(=O)Cc3ccccc3Cl)cc12 [Compound 14]", "10 to 50 nM"),
    ("COCCOc1cc2c(S(N)(=O)=O)cc(NC(=O)Cc3ccccc3Cl)cc2cn1 [Compound 84]", "50 to 200 nM"),
]

Value of IC50 reported for the molecule NS(=O)(=O)c1cc(NC(=O)Cc2ccccc2Cl)cc2cnc(Cl)cc12 [Compound 5] is 50 to 200 nM

----------
Entries annotated with measured IC50
Target: hP2X4 (human purinergic P2X receptor subtype 4) (Homo sapiens, UniProt Q99571)
Details: P2X4 IC50 (nM), HEK293 cells stably expressing hP2X4; agonist BZ-ATP 2.5 μM; FLIPR calcium

As a guide, the following entries are already answered.
# smi, IC50
measured = [
    ("NS(=O)(=O)c1cc(NC(=O)Cc2ccccc2Cl)cc2c(OCc3ccc(F)cc3)nccc12", "10 to 50 nM"),
    ("NS(=O)(=O)c1cc(NC(=O)Cc2ccccc2Cl)cc2cnc(-n3ccnc3)cc12", "10 to 50 nM"),
    ("COc1nccc2c(S(N)(=O)=O)cc(NC(=O)Cc3cc(F)c(F)cc3Cl)cc12", "< 10 nM"),
]

The value of IC50 recorded for NS(=O)(=O)c1cc(NC(=O)Cc2ccccc2Cl)cc2nc(N3CCCCC3)ccc12 when tested on hP2X4 (human purinergic P2X receptor subtype 4) (Homo sapiens, UniProt Q99571) reads 200 to 5000 nM

----------
Molecular target: hP2X4 (human purinergic P2X receptor subtype 4) (Homo sapiens)
Sequence (Q99571 1-404 isoform Q99571-2): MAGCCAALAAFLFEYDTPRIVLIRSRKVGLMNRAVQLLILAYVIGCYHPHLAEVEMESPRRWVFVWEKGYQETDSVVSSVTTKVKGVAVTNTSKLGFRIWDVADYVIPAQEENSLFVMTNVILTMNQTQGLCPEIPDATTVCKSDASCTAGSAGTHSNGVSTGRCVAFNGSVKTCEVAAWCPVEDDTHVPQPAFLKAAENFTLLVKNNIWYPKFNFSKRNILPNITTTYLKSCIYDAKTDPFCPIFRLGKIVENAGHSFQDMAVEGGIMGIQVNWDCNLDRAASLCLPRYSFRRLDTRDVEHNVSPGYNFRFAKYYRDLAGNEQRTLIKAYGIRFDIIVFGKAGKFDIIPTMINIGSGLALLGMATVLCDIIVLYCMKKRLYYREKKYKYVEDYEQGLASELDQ
Details: P2X4 IC50 (nM), HEK293 cells stably expressing hP2X4; agonist BZ-ATP 2.5 μM; FLIPR calcium
Quick reference for IC50 among some molecules

A selection of reference data follows.
# molecule, study-system, reported-endpoint, result
records = [
    ("NS(=O)(=O)c1cc(NC(=O)Cc2ccccc2Cl)cc2cnc(OCCO)cc12 [Compound 76]", "hP2X4 (human purinergic P2X receptor subtype 4) (Homo sapiens)", "IC50", "50 to 200 nM"),
    ("NS(=O)(=O)c1cc(NC(=O)Cc2ccccc2Cl)cc2c1CCN(C(=O)Oc1ccccc1)C2 [Compound 105]", "hP2X4 (human purinergic P2X receptor subtype 4) (Homo sapiens)", "IC50", "50 to 200 nM"),
    ("COc1nccc2c(S(N)(=O)=O)cc(NC(=O)Cc3cccc(F)c3Cl)cc12 [Compound 97]", "hP2X4 (human purinergic P2X receptor subtype 4) (Homo sapiens)", "IC50", "50 to 200 nM"),
]

Next, consider the following molecule.
// recorded IC50 for CN1CCN(c2ccc3c(S(N)(=O)=O)cc(NC(=O)Cc4ccccc4Cl)cc3n2)CC1 [Compound 69] : 200 to 5000 nM
